- system.name: Human PTP1B (1-321) (Homo sapiens)
- Sequence (P18031 1-321): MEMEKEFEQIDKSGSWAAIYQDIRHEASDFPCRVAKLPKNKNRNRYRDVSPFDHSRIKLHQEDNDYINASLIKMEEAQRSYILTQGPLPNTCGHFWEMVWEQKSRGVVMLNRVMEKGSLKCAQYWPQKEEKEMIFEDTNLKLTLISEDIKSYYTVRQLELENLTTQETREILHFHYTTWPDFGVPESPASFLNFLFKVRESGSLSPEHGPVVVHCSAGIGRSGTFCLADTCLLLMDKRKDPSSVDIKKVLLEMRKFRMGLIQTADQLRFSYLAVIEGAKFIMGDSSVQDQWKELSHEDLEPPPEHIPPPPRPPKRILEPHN
pIC50: −log10 of the molar value.
# label = T if pIC50 >= 6 else F

1) CNc1nc(N)nc2nc(-c3cccs3)ccc12 [Example 13] = F
2) CNc1nc(N)nc2nc(-c3c(N4CCN(C(=O)c5ccco5)CC4)cccc3C(F)(F)F)ccc12 [Example 116] = T
3) CNc1nc(N)nc2nc(-c3ccccc3C)ccc12 [Example 1] = F
4) CNc1nc(N)nc2nc(-c3ccccc3)cc(-c3ccccc3)c12 [Example 139] = F

Please check the record CNc1nc(N)nc2nc(-c3c(N4CCC(Cc5ccccc5)CC4)cccc3C(F)(F)F)ccc12 [Example 121] and state if its pIC50 is at or above 6. F
